Origin of the recorded values: the supplement of paper PMC10567573

B1: FAM98B (parent)
chain: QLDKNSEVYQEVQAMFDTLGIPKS

# Variants of: B1
# Assay text: protein stability index of a GFP-peptide fusion (GPS, HEK-293T) (PSI 1-6); higher = more stable;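 further: lentivirally expressed fusions sorted by FACS into six bins by GFP to DsRed ratio, PSI derived from sequencing read proportions per bin multiplied by bin number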
# Experimental conditions: c terminus: a fixed tail appended

- Sequence chain: "QLDKNSEVYQEVQAMFDTLGIAKS"
  protein stability index: 3.48
- Sequence chain: "QLDKNSEVYQEVQAMFDTLGIPKR"
  protein stability index: 2.5
- Sequence chain: "HLDKNSEVYQEVQAMFDTLGIPKS"
  protein stability index: 3.64
- Sequence chain: "QLDKNGEVYQEVQAMFDTLGIPKS"
  protein stability index: 3.56
- Sequence chain: "QLDKNSEVYQEVIAMFDTLGIPKS"
  protein stability index: 3.19
- Sequence chain: "QLDKNSEVYQEVQAMFDTFGIPKS"
  protein stability index: 2.85
- Sequence chain: "QLDKNSEVYQEVQAWFDTLGIPKS"
  protein stability index: 3.55
- Sequence chain: "QLDKNSEVYQEVQAMFDCLGIPKS"
  protein stability index: 2.59
- Sequence chain: "QLDKNSEVYQEPQAMFDTLGIPKS"
  protein stability index: 3.34
- Sequence chain: "QLDKNSEVYQEVQAIFDTLGIPKS"
  protein stability index: 3.24
- Sequence chain: "QWDKNSEVYQEVQAMFDTLGIPKS"
  protein stability index: 4.03
- Sequence chain: "QLDKNSEVYQEVQCMFDTLGIPKS"
  protein stability index: 3.04
- Sequence chain: "QLDKNSEVYDEVQAMFDTLGIPKS"
  protein stability index: 3.75
- Sequence chain: "QLDKNSEVYQEVQRMFDTLGIPKS"
  protein stability index: 2.55
- Sequence chain: "QLDKNSEVYNEVQAMFDTLGIPKS"
  protein stability index: 3.07
- Sequence chain: "QLDKNHEVYQEVQAMFDTLGIPKS"
  protein stability index: 3.35
- Sequence chain: "QLDKNSEVYQEVQAMFDVLGIPKS"
  protein stability index: 2.57
- Sequence chain: "QLDKNSERYQEVQAMFDTLGIPKS"
  protein stability index: 3.36
- Sequence chain: "QLDKNSEVYQEVQDMFDTLGIPKS"
  protein stability index: 3.82
- Sequence chain: "QLDKNSEVYQEVQAMFDTLCIPKS"
  protein stability index: 2.63
